experiment: Inhibition of rat liver monoamine oxidase by Lineweaver-Burke plot
quantity: pKi
# log scale: pKi equals minus log10 of the concentration in mol/L

Past entries and their recorded results:
COc1ccccc1C1CC(c2ccccc2O)=NN1C(=S)Nc1ccccc1 (stereo not given)	4.20
Cc1ccc(NC(=S)N2N=C(c3ccccc3O)CC2c2ccc(O)cc2)cc1 (stereo not given)	4.37
Oc1ccccc1C1=NN(C(=S)Nc2ccccc2)C(c2ccc(Cl)cc2)C1 (stereo not given)	4.70
NC(=S)N1N=C(c2ccccc2O)CC1c1ccc(O)cc1 (stereo not given)	4.82
COc1cc(C2CC(c3ccc(O)cc3O)=NN2C(=S)Nc2ccccc2)ccc1O (stereo not given)	4.10

Need pKi, item COc1ccc(NC(=S)N2N=C(c3ccccc3O)CC2c2ccccc2O)cc1 (stereo not given)
4.44

Same for C#CCN(C)CCCOc1ccc(Cl)cc1Cl [CLORGILINE]
5.70

Same for COc1ccc(NC(=S)N2N=C(c3ccc(O)cc3O)CC2c2ccc(O)c(OC)c2)cc1 (stereo not given)
4.15

Same for Cc1ccc(NC(=S)N2N=C(c3ccccc3O)CC2c2ccccc2O)cc1 (stereo not given)
4.46

Same for Oc1ccc(C2CC(c3ccc(O)cc3O)=NN2C(=S)Nc2ccccc2)cc1 (stereo not given)
4.10

====

These records show IC50 for Amine oxidase [flavin-containing] A (Rattus norvegicus, UniProt P21396).
Respond with the figure and its unit, in that order.

Need IC50, item COc1cc(C2CC(c3ccccc3O)=NN2C(=S)Nc2ccc(C)cc2)ccc1O (stereo unspecified)
50.6 µM

Same for COc1ccc(C2CC(c3ccccc3O)=NN2C(=S)Nc2ccccc2)cc1 (stereo unspecified)
2.84 µM

Same for Oc1ccc(C2CC(c3ccccc3)=NN2C(=S)Nc2ccccc2)cc1 (stereo unspecified)
476 µM

Same for Oc1ccc(C2CC(c3ccc(O)cc3O)=NN2C(=S)Nc2ccccc2)cc1 (stereo unspecified)
58.6 µM

Same for COc1ccccc1NC(=S)N1N=C(c2ccccc2O)CC1c1ccc(O)cc1 (stereo unspecified)
151 µM

Same for Oc1ccccc1C1=NN(C(=S)Nc2ccccc2)C(c2ccccc2O)C1 (stereo unspecified)
58.1 µM

Same for COc1ccccc1NC(=S)N1N=C(c2ccc(O)cc2O)CC1c1ccc(O)cc1 (stereo unspecified)
148 µM

====

These records show pIC50 for Amine oxidase [flavin-containing] B (Rattus norvegicus, UniProt P19643).
# log scale: pIC50 equals minus log10 of the concentration in mol/L

COc1ccccc1C1CC(c2ccccc2O)=NN1C(=S)Nc1ccccc1 (stereo not drawn)	3.38
Oc1ccccc1C1=NN(C(=S)Nc2ccccc2)C(c2ccco2)C1 (stereo not drawn)	3.36

// next entry
Need pIC50, item COc1cc(C2CC(c3ccc(O)cc3O)=NN2C(=S)Nc2ccccc2)ccc1O (stereo not drawn)
3.31

====

IC50 overview
Biological target: Amine oxidase [flavin-containing] B (Rattus norvegicus, UniProt P19643)
Sequence (P19643 whole entry): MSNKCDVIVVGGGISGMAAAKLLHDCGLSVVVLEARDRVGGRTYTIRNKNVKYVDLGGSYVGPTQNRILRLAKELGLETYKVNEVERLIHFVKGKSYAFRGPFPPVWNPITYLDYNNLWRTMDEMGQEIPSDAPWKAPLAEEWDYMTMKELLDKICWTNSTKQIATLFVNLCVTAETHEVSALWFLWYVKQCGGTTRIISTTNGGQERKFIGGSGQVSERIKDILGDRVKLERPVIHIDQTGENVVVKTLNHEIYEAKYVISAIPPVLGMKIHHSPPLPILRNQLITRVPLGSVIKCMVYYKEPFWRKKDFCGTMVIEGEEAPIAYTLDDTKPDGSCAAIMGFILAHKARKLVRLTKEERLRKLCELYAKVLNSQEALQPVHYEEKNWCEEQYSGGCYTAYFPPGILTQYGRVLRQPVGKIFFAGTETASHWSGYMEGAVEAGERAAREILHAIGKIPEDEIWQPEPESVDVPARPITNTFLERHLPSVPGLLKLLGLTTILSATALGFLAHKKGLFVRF
Only the number, expressed in µM, is required.

Past entries and their recorded results:
Oc1ccccc1C1=NN(C(=S)Nc2ccccc2)C(c2ccccc2O)C1 (stereo not given)	420
O=C(NCCN1CCOCC1)c1ccc(Cl)cc1 [MOCLOBEMIDE]	480

Under Amine oxidase [flavin-containing] B (Rattus norvegicus, UniProt P19643): IC50 value of COc1ccc(NC(=S)N2N=C(c3ccccc3O)CC2c2ccc(O)c(OC)c2)cc1 (stereo not given) ?
477

Same for COc1cc(C2CC(c3ccccc3O)=NN2C(=S)Nc2ccccc2OC)ccc1O (stereo not given)
201

Same for COc1cc(C2CC(c3ccccc3O)=NN2C(=S)Nc2ccccc2)ccc1O (stereo not given)
451

Same for COc1ccc(NC(=S)N2N=C(c3ccc(O)cc3O)CC2c2ccc(O)c(OC)c2)cc1 (stereo not given)
475

Same for COc1cc(C2CC(c3ccc(O)cc3O)=NN2C(=S)Nc2ccccc2OC)ccc1O (stereo not given)
170

Same for COc1cc(C2CC(c3ccccc3O)=NN2C(=S)Nc2ccc(C)cc2)ccc1O (stereo not given)
481

Same for Oc1ccccc1C1=NN(C(=S)Nc2ccccc2)C(c2ccc(Cl)cc2)C1 (stereo not given)
400

Same for Oc1ccccc1C1=NN(C(=S)Nc2ccccc2)C(c2ccccc2)C1 (stereo not given)
439
